Test system: 324938-238-R-J1-PDC complex spheroid growth, % test/control
experiment_description: Anticancer human tumor 324938-238-R-J1-PDC patient-derived bladder carcinoma cell line growth inhibition [AhR]
run_conditions: curve of first compound; second compound 0.316 µM
pIC50: −log10 of the molar value.

compound	value_prefix	pIC50
NS(=O)(=O)OCC1CC(n2ccc3c(NC4CCc5ccccc54)ncnc32)CC1O (stereo not drawn) + Cc1ccccc1N=Nc1ccc(NC(=O)c2ccnn2C)c(C)c1	=	5.97
CC(C)CC(NC(=O)C(Cc1ccccc1)NC(=O)c1cnccn1)B(O)O (stereo not drawn) + CC(CO)NC(=O)c1cc(-c2ccc(Cl)cc2)nn(-c2cnn(C)c2)c1=O	=	8.77
CC1(C)CCC(CN2CCN(c3ccc(C(=O)NS(=O)(=O)c4ccc(NCC5CCOCC5)c([N+](=O)[O-])c4)c(Oc4cnc5[nH]ccc5c4)c3)CC2)=C(c2ccc(Cl)cc2)C1 + CC(CO)NC(=O)c1cc(-c2ccc(Cl)cc2)nn(-c2cnn(C)c2)c1=O	<	5.00

###

Test system: 324938-238-R-J1-PDC complex spheroid growth, % test/control
experiment_description: Anticancer human tumor 324938-238-R-J1-PDC cell line growth inhibition [AhR];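 further: spheroids exposed to agents for seven days before viability read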
run_conditions: second compound 0.316 µM; first compound 0.0949 µM; stronger effect = lower value

compound	target_under_test	viability, T/C / %
CC(C)CC(NC(=O)C(Cc1ccccc1)NC(=O)c1cnccn1)B(O)O (stereo not drawn) + Cc1cncc(-c2nc(NCCc3c[nH]c4ccccc34)c3ncn(C(C)C)c3n2)c1	324938-238-R-J1-PDC complex spheroid growth, % test/control	1.05
CCN(c1cc(-c2ccc(CN3CCOCC3)cc2)cc(C(=O)NCc2c(C)cc(C)[nH]c2=O)c1C)C1CCOCC1 + Cc1ccccc1N=Nc1ccc(NC(=O)c2ccnn2C)c(C)c1	324938-238-R-J1-PDC complex spheroid growth, % test/control	106
CCN(c1cc(-c2ccc(CN3CCOCC3)cc2)cc(C(=O)NCc2c(C)cc(C)[nH]c2=O)c1C)C1CCOCC1 + Cc1cncc(-c2nc(NCCc3c[nH]c4ccccc34)c3ncn(C(C)C)c3n2)c1	324938-238-R-J1-PDC complex spheroid growth, % test/control	112

###

List of viability, T/C values.
System: 324938-238-R-J1-PDC complex spheroid growth, % test/control
experiment_description: Anticancer human tumor 324938-238-R-J1-PDC cell line growth inhibition [AhR];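 further: spheroids exposed to agents for seven days before viability read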
run_conditions: second compound 0.1 µM; first compound 3.16 µM; stronger effect = lower value

compound	viability, T/C / %
Nc1ccccc1NC(=O)c1ccc(CNC(=O)OCc2cccnc2)cc1 + Cc1ccccc1N=Nc1ccc(NC(=O)c2ccnn2C)c(C)c1	48.6
Nc1ccn(C2OC(CO)C(O)C2(F)F)c(=O)n1 (stereo not drawn) + Cc1cncc(-c2nc(NCCc3c[nH]c4ccccc34)c3ncn(C(C)C)c3n2)c1	83.9
NS(=O)(=O)OCC1CC(n2ccc3c(NC4CCc5ccccc54)ncnc32)CC1O (stereo not drawn) + CC(CO)NC(=O)c1cc(-c2ccc(Cl)cc2)nn(-c2cnn(C)c2)c1=O	25.3

###

Test system: 324938-238-R-J1-PDC complex spheroid growth, % test/control
experiment_description: Anticancer human tumor 324938-238-R-J1-PDC cell line growth inhibition [AhR];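 further: spheroids exposed to agents for seven days before viability read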
run_conditions: second compound 0.1 µM; first compound 3.16 µM; stronger effect = lower value
Each record is given met if its reported viability, T/C is strictly below 60%. Records at or above 60% are given not met.

compound	assigned_label
O=C(C=Cc1cccc(S(=O)(=O)Nc2ccccc2)c1)NO + Cc1cncc(-c2nc(NCCc3c[nH]c4ccccc34)c3ncn(C(C)C)c3n2)c1	met
Nc1ccccc1NC(=O)c1ccc(CNC(=O)OCc2cccnc2)cc1 + CC(CO)NC(=O)c1cc(-c2ccc(Cl)cc2)nn(-c2cnn(C)c2)c1=O	not met
NS(=O)(=O)OCC1CC(n2ccc3c(NC4CCc5ccccc54)ncnc32)CC1O (stereo unspecified) + Cc1ccccc1N=Nc1ccc(NC(=O)c2ccnn2C)c(C)c1	met
COc1ccc([C@@H](O)c2cc(-c3ncnc4cc(N5CCOCC5)ccc34)c(F)cc2Cl)nn1 + CC(CO)NC(=O)c1cc(-c2ccc(Cl)cc2)nn(-c2cnn(C)c2)c1=O	not met
CC1(C)CCC(CN2CCN(c3ccc(C(=O)NS(=O)(=O)c4ccc(NCC5CCOCC5)c([N+](=O)[O-])c4)c(Oc4cnc5[nH]ccc5c4)c3)CC2)=C(c2ccc(Cl)cc2)C1 + CC(CO)NC(=O)c1cc(-c2ccc(Cl)cc2)nn(-c2cnn(C)c2)c1=O	not met
CC(C)c1c(-c2ccccc2)nc2c(C#N)c[nH]n2c1=O + Cc1ccccc1N=Nc1ccc(NC(=O)c2ccnn2C)c(C)c1	not met

###

List of viability, T/C values.
Test system: 324938-238-R-J1-PDC complex spheroid growth, % test/control
experiment_description: Anticancer human tumor 324938-238-R-J1-PDC cell line growth inhibition [AhR];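 further: spheroids exposed to agents for seven days before viability read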
run_conditions: second compound 3.16 µM; first compound 0.000316 µM; stronger effect = lower value
Text: Multicellular complex tumor spheroid response to aryl hydrocarbon receptor antagonists in combination with a variety of drugs and investigational agents in selected tumor cell lines […] Compounds. […] If the clinical Cmax for an agent had not been determined, the highest concentration tested was 10 microM (Table 1). […]

compound	target_under_test	viability, T/C
Cn1ncnc1C1c2n[nH]c(=O)c3cc(F)cc(c23)NC1c1ccc(F)cc1 (stereo unspecified) + CC(CO)NC(=O)c1cc(-c2ccc(Cl)cc2)nn(-c2cnn(C)c2)c1=O	324938-238-R-J1-PDC complex spheroid growth, % test/control	67.6%
Cn1ncnc1C1c2n[nH]c(=O)c3cc(F)cc(c23)NC1c1ccc(F)cc1 (stereo unspecified) + Cc1cncc(-c2nc(NCCc3c[nH]c4ccccc34)c3ncn(C(C)C)c3n2)c1	324938-238-R-J1-PDC complex spheroid growth, % test/control	93.7%
CC[C@@]1(O)C(=O)OCc2c1cc1n(c2=O)Cc2cc3c(CN(C)C)c(O)ccc3nc2-1 + Cc1cncc(-c2nc(NCCc3c[nH]c4ccccc34)c3ncn(C(C)C)c3n2)c1	324938-238-R-J1-PDC complex spheroid growth, % test/control	97.8%
Cn1ncnc1C1c2n[nH]c(=O)c3cc(F)cc(c23)NC1c1ccc(F)cc1 (stereo unspecified) + Cc1ccccc1N=Nc1ccc(NC(=O)c2ccnn2C)c(C)c1	324938-238-R-J1-PDC complex spheroid growth, % test/control	83.9%
CC[C@@]1(O)C(=O)OCc2c1cc1n(c2=O)Cc2cc3c(CN(C)C)c(O)ccc3nc2-1 + CC(CO)NC(=O)c1cc(-c2ccc(Cl)cc2)nn(-c2cnn(C)c2)c1=O	324938-238-R-J1-PDC complex spheroid growth, % test/control	74%
CC[C@@]1(O)C(=O)OCc2c1cc1n(c2=O)Cc2cc3c(CN(C)C)c(O)ccc3nc2-1 + Cc1ccccc1N=Nc1ccc(NC(=O)c2ccnn2C)c(C)c1	324938-238-R-J1-PDC complex spheroid growth, % test/control	86.2%

###

System: 324938-238-R-J1-PDC complex spheroid growth, % test/control
experiment_description: Anticancer human tumor 324938-238-R-J1-PDC cell line growth inhibition [AhR];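 further: spheroids exposed to agents for seven days before viability read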
run_conditions: second compound 3.16 µM; first compound 0.001 µM; stronger effect = lower value
Each record is given satisfied if its reported viability, T/C is strictly below 90%. Records at or above 90% are given not satisfied.

molecule	assigned_label
CC[C@@]1(O)C(=O)OCc2c1cc1n(c2=O)Cc2cc3c(CN(C)C)c(O)ccc3nc2-1 + Cc1cncc(-c2nc(NCCc3c[nH]c4ccccc34)c3ncn(C(C)C)c3n2)c1	satisfied
CC[C@@]1(O)C(=O)OCc2c1cc1n(c2=O)Cc2cc3c(CN(C)C)c(O)ccc3nc2-1 + Cc1ccccc1N=Nc1ccc(NC(=O)c2ccnn2C)c(C)c1	satisfied
Cn1ncnc1C1c2n[nH]c(=O)c3cc(F)cc(c23)NC1c1ccc(F)cc1 (stereo unspecified) + Cc1cncc(-c2nc(NCCc3c[nH]c4ccccc34)c3ncn(C(C)C)c3n2)c1	not satisfied
Cn1ncnc1C1c2n[nH]c(=O)c3cc(F)cc(c23)NC1c1ccc(F)cc1 (stereo unspecified) + CC(CO)NC(=O)c1cc(-c2ccc(Cl)cc2)nn(-c2cnn(C)c2)c1=O	satisfied
Cn1ncnc1C1c2n[nH]c(=O)c3cc(F)cc(c23)NC1c1ccc(F)cc1 (stereo unspecified) + Cc1ccccc1N=Nc1ccc(NC(=O)c2ccnn2C)c(C)c1	satisfied
CC[C@@]1(O)C(=O)OCc2c1cc1n(c2=O)Cc2cc3c(CN(C)C)c(O)ccc3nc2-1 + CC(CO)NC(=O)c1cc(-c2ccc(Cl)cc2)nn(-c2cnn(C)c2)c1=O	satisfied

###

Tested on: 324938-238-R-J1-PDC complex spheroid growth, % test/control
experiment_description: Anticancer human tumor 324938-238-R-J1-PDC cell line growth inhibition [AhR];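 further: spheroids exposed to agents for seven days before viability read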
run_conditions: second compound 3.16 µM; first compound 0.0316 µM; stronger effect = lower value
Description: Multicellular complex tumor spheroid response to aryl hydrocarbon receptor antagonists in combination with a variety of drugs and investigational agents in selected tumor cell lines […] Compounds. […] If the clinical Cmax for an agent had not been determined, the highest concentration tested was 10 microM (Table 1). […]
Each record is given MET if its reported viability, T/C is strictly below 80%. Records at or above 80% are given NOT MET.

compound	assigned_label
O=C(C=Cc1cccc(S(=O)(=O)Nc2ccccc2)c1)NO + CC(CO)NC(=O)c1cc(-c2ccc(Cl)cc2)nn(-c2cnn(C)c2)c1=O	MET
COc1cc(Nc2ncc3c(n2)-c2ccc(Cl)cc2C(c2c(F)cccc2OC)=NC3)ccc1C(=O)O + Cc1cncc(-c2nc(NCCc3c[nH]c4ccccc34)c3ncn(C(C)C)c3n2)c1	NOT MET
CC(C)c1c(-c2ccccc2)nc2c(C#N)c[nH]n2c1=O + Cc1cncc(-c2nc(NCCc3c[nH]c4ccccc34)c3ncn(C(C)C)c3n2)c1	NOT MET
COc1ccc([C@@H](O)c2cc(-c3ncnc4cc(N5CCOCC5)ccc34)c(F)cc2Cl)nn1 + Cc1cncc(-c2nc(NCCc3c[nH]c4ccccc34)c3ncn(C(C)C)c3n2)c1	NOT MET
